System: dengue virus type 3
PROTOCOL TEXT: Antiviral activity against Dengue virus 3 D3MY05-34640 infected in human HuH7 replicon cells expressing Renilla luciferase and neomycin-resistance genes assessed as reduction in viral replication incubated for 48 hrs by luciferase reporter replicon-based assay
Type: functional, organism-based
PARTICULARS: D3MY05-34640, Huh-7, 48 h
Exercise: state measured EC50 for each of the compounds provided.

Reference set (2 entries):
C[C@@H](c1ccc(Cl)cc1)n1nnc2c1NC(=O)C[C@@]21C(=O)N(CCOC(=O)CCCCCCCNC(=O)CCCC[C@@H]2SC[C@@H]3NC(=O)N[C@@H]32)c2ccc(Cl)cc21 :: > 5000 nM
C[C@@H](c1ccc(Cl)cc1)n1nnc2c1N(C)C(=O)C(C)(C)[C@]21C(=O)N(C)c2ccc(Cl)cc21 :: > 5000 nM

Hi there! I need EC50 for each item below, if you can.
1. C[C@@H](c1ccc(Cl)cc1)n1nnc2c1NC(=O)C[C@]21C(=O)N(CCCN2CCOCC2)c2ccc(Cl)cc21
2. C[C@@H](c1ccc(Cl)cc1)n1nnc2c1NC(=O)C[C@]21C(=O)N(CCN2CCCC2)c2ccc(Cl)cc21
3. C[C@@H](c1ccc(Cl)cc1)n1nnc2c1NC(=O)C[C@]21C(=O)N(CCN(C)C)c2ccc(Cl)cc21

Reply:
["5 nM", "6 nM", "2 nM"]

Hi there! I need EC50 for each item below, if you can.
1. Cc1ccc(CN2C(=O)[C@]3(CC(=O)Nc4c3nnn4[C@@H](C)c3ccc(Cl)cc3)c3cc(Cl)ccc32)cn1
2. CNCCN1C(=O)[C@]2(CC(=O)Nc3c2nnn3[C@@H](C)c2ccc(Cl)cc2)c2cc(Cl)ccc21
3. C[C@@H](c1ccc(Cl)cc1)n1nnc2c1NC(=O)C[C@]21C(=O)N(CCN2CCC2)c2ccc(Cl)cc21

Reply:
11 nM
22 nM
7 nM

Hi there! I need EC50 for each item below, if you can.
1. C[C@@H](c1ccc(Cl)cc1)n1nnc2c1NC(=O)C[C@]21C(=O)N(Cc2ccc(Cl)cc2)c2ccc(Cl)cc21
2. C[C@@H](c1ccc(Cl)cc1)n1nnc2c1NC(=O)C[C@]21C(=O)N(CCCCCCCCN(C)C)c2ccc(Cl)cc21
3. CCCCN1C(=O)[C@]2(CC(=O)Nc3c2nnn3[C@@H](C)c2ccc(Cl)cc2)c2cc(Cl)ccc21
4. CC(C)CCN1C(=O)[C@]2(CC(=O)Nc3c2nnn3[C@@H](C)c2ccc(Cl)cc2)c2cc(Cl)ccc21

Reply:
["200 nM", "42 nM", "18 nM", "35 nM"]

Hi there! I need EC50 for each item below, if you can.
1. C[C@@H](c1ccc(Cl)cc1)n1nnc2c1NC(=O)C[C@]21C(=O)N(Cc2ccc(Cl)c(F)c2)c2ccc(Cl)cc21
2. CC(C)CN1C(=O)[C@]2(CC(=O)Nc3c2nnn3[C@@H](C)c2ccc(Cl)cc2)c2cc(Cl)ccc21

Reply:
1. 290 nM
2. 20 nM

###

Exercise: state measured EC50 for each of the compounds provided.
System: dengue virus type 3
PROTOCOL TEXT: Antiviral activity against Dengue virus 3 D3MY05-34640 infected in human HuH7 replicon cells expressing Renilla luciferase and neomycin-resistance genes assessed as reduction in viral replication incubated for 48 hrs by luciferase reporter replicon-based assay
Format: functional, organism-based
PARTICULARS: D3MY05-34640, Huh-7, 48 h
One number for each entry, in nM.

C[C@@H](c1ccc(Cl)cc1)n1nnc2c1NC(=O)C[C@]21C(=O)N(CCc2ccccc2)c2ccc(Cl)cc21 :: 190
C[C@@H](c1ccc(Cl)cc1)n1nnc2c1NC(=O)C[C@]21C(=O)N(Cc2ccc(Cl)nc2)c2ccc(Cl)cc21 :: 6
C[C@@H](c1ccc(Cl)cc1)n1nnc2c1NC(=O)C[C@]21C(=O)N(CCCCN(C)C)c2ccc(Cl)cc21 :: 38
COCCCN1C(=O)C[C@]2(C(=O)Nc3ccc(Cl)cc32)c2nnn([C@@H](C)c3ccc(Cl)cc3)c21 :: 910
C#CCN1C(=O)[C@]2(CC(=O)Nc3c2nnn3[C@@H](C)c2ccc(Cl)cc2)c2cc(Cl)ccc21 :: 3
C[C@@H](c1ccc(Cl)cc1)n1nnc2c1NC(=O)C[C@]21C(=O)N(CCCCCl)c2ccc(Cl)cc21 :: 19
COC(=O)CN1C(=O)C[C@]2(C(=O)Nc3ccc(Cl)cc32)c2nnn([C@@H](C)c3ccc(Cl)cc3)c21 :: 2700
COCOCCN1C(=O)[C@]2(CC(=O)Nc3c2nnn3[C@@H](C)c2ccc(Cl)cc2)c2cc(Cl)ccc21 :: 19
C=CCN1C(=O)[C@]2(CC(=O)Nc3c2nnn3[C@@H](C)c2ccc(Cl)cc2)c2cc(Cl)ccc21 :: 5

Kindly consider the entry below.
Lab entry: dengue virus type 3 assay, compound C[C@@H](c1ccc(Cl)cc1)n1nnc2c1NC(=O)C[C@]21C(=O)N(Cc2ccccn2)c2ccc(Cl)cc21 , EC50 = 3

###

System: dengue virus type 3
PROTOCOL TEXT: Antiviral activity against Dengue virus 3 D3MY05-34640 infected in human HuH7 replicon cells expressing Renilla luciferase and neomycin-resistance genes assessed as reduction in viral replication incubated for 48 hrs by luciferase reporter replicon-based assay
Assay type: functional, organism-based
PARTICULARS: D3MY05-34640, Huh-7, 48 h
Exercise: state measured pEC50 for each of the compounds provided.
Numbers only, as −log10 of the molar value.

Reference set (6 entries):
C[C@@H](c1ccc(Cl)cc1)n1nnc2c1NC(=O)C[C@]21C(=O)N(Cc2ccc(F)cc2)c2ccc(Cl)cc21 :: 7.32
C[C@@H](c1ccc(Cl)cc1)n1nnc2c1NC(=O)C[C@]21C(=O)N(CCOC(=O)CCCCCCCNC(=O)CCCC[C@@H]2SC[C@@H]3NC(=O)N[C@@H]32)c2ccc(Cl)cc21 :: 7.78
C[C@@H](c1ccc(Cl)cc1)n1nnc2c1NC(=O)C[C@]21C(=O)N(CCN2CCOCC2)c2ccc(Cl)cc21 :: 7.77
CC(C)N1C(=O)C[C@]2(C(=O)Nc3ccc(Cl)cc32)c2nnn([C@@H](C)c3ccc(Cl)cc3)c21 :: 6.51
C[C@@H](c1ccc(Cl)cc1)n1nnc2c1NC(=O)C[C@]21C(=O)N(CCO)c2ccc(Cl)cc21 :: 8.00
C[C@@H](c1ccc(Cl)cc1)n1nnc2c1NC(=O)C[C@]21C(=O)N(CCN2CCN(C)CC2)c2ccc(Cl)cc21 :: 7.52

Hi there! I need pEC50 for each item below, if you can.
1. COc1cccc(CN2C(=O)[C@]3(CC(=O)Nc4c3nnn4[C@@H](C)c3ccc(Cl)cc3)c3cc(Cl)ccc32)c1
2. CCCN1C(=O)[C@]2(CC(=O)Nc3c2nnn3[C@@H](C)c2ccc(Cl)cc2)c2cc(Cl)ccc21
3. C[C@@H](c1ccc(Cl)cc1)n1nnc2c1NC(=O)C[C@]21C(=O)N(CCN2CCCCC2)c2ccc(Cl)cc21

Reply:
1. 7.06
2. 8.00
3. 8.30

Hi there! I need pEC50 for each item below, if you can.
1. C[C@@H](c1ccc(Cl)cc1)n1nnc2c1NC(=O)C[C@]21C(=O)N(Cc2ccccc2)c2ccc(Cl)cc21
2. CC(C)N1C(=O)[C@]2(CC(=O)Nc3c2nnn3[C@@H](C)c2ccc(Cl)cc2)c2cc(Cl)ccc21

Reply:
7.70
8.05

Hi there! I need pEC50 for each item below, if you can.
1. C[C@@H](c1ccc(Cl)cc1)n1nnc2c1NC(=O)C[C@]21C(=O)N(CCN(C)CCS(C)(=O)=O)c2ccc(Cl)cc21
2. C[C@@H](c1ccc(Cl)cc1)n1nnc2c1NC(=O)C[C@]21C(=O)N(Cc2cc(C(C)(C)C)cc(C(C)(C)C)c2)c2ccc(Cl)cc21

Reply:
1: 7.74; 2: 5.23

###

System: dengue virus type 1
PROTOCOL TEXT: Antiviral activity against Dengue virus 1 WestPac infected in human HuH7 replicon cells expressing Renilla luciferase and neomycin-resistance genes assessed as reduction in viral replication incubated for 48 hrs by luciferase reporter replicon-based assay
Format: functional, organism-based
PARTICULARS: Huh-7, 48 h
pEC50: −log10 of the molar value.
Exercise: state measured pEC50 for each of the molecules provided.

Reference set (2 entries):
C[C@@H](c1ccc(Cl)cc1)n1nnc2c1NC(=O)C[C@]21C(=O)N(Cc2ccncc2)c2ccc(Cl)cc21 :: < 5.30
CCCCN1C(=O)[C@]2(CC(=O)Nc3c2nnn3[C@@H](C)c2ccc(Cl)cc2)c2cc(Cl)ccc21 :: 5.89

Lab note: measured pEC50 of C[C@@H](c1ccc(Cl)cc1)n1nnc2c1NC(=O)C[C@]21C(=O)N(Cc2ccccn2)c2ccc(Cl)cc21 was < 5.30
